Assay: NCI Yeast Anticancer Drug Screen. Data for the cln2 rad14 strain (AID 165);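 note: 0% = growth equal to vehicle treated cultures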
Conditions: S. cerevisiae cln2 rad14 strain, at 50.0 µM (retest, dose inferred, filed as 5.0), active compounds read high
Method: Growth inhibition of yeast strains with defined genetic alterations is measured as a screen for potential anti-cancer activity. Selected strains with alterations in DNA damage repair or cell cycle control were exposed to compounds and growth inhibition was measured relative to vehicle treated controls. The strain used in this assay is cln2 rad14
The panel holds about 79,000 compounds, 15% with a hit somewhere; the sample as a whole holds those more often.
Param threshold (20%) applies to growth inhibition; output 1 when value >= threshold, 0 when value < threshold.

Could you verify whether the entry CCCCCCCCCCNC1CC(OC2CC(O)(C(O)CO)Cc3c(O)c4c(c(O)c32)C(=O)c2c(OC)cccc2C4=O)OC(C)C1O (stereo not given) shows growth inhibition of no less than 20%?
1

And CC(=O)OC1CCC2(C)C(CCC3C4CCC(OC(C)=O)C4(C)CCC32)O1 (stereo not given) ?
1

And CCN(CC)CCCn1c2cc(=O)c(=O)cc-2[nH]c2cc(C)ccc21 ?
1

And CC(=O)OC(c1ccccc1)c1ccc(Cl)cc1 (stereo not given) ?
0

And C=CC(=O)O ?
0

And CCCCCCCCCCCCCC1=NCC(c2ccc3ccccc3c2)O1 (stereo not given) ?
0

And CCCc1cc(=O)oc2c3c(c4c(c12)OC(C)(C)CC4)O[C@@H](C)[C@H](C)[C@H]3O ?
1

And Cc1ccc(S(=O)(=O)C23C(N=NC2(C)C)C3(C)C)cc1 (stereo not given) ?
0

And COc1cccc2c1C(=O)c1c(O)c3c(c(O)c1C2=O)C[C@@](O)(C(C)=O)C[C@@H]3OC1CC(N)C(O)C(C)O1 (stereo not given in full) ?
1

And COc1ccc(N/N=C(\CCN(C)C)c2ccccc2)cc1 ?
1

And CCCCCCCCCCCCCCCCBr ?
0

And CC1CP(c2ccccc2)(c2ccccc2)(c2ccccc2)OC1(C(=O)c1ccccc1)c1ccccc1 (stereo not given) ?
0

And CCN(CC)CCNc1n[n+]([O-])c2cc([N+](=O)[O-])ccc2[n+]1[O-] ?
1

And CCOC(=O)C(C(=O)c1ccccc1)C(=O)c1ccccc1 ?
1

And O=C1C(CN2CCCCC2)CCCC1CN1CCCCC1 (stereo not given) ?
0

* * *

assay: NCI Yeast Anticancer Drug Screen. Data for the cln2 rad14 strain (AID 165);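 note: 0% = growth equal to vehicle treated cultures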; settings: S. cerevisiae cln2 rad14 strain, at 50.0 µM (retest, dose inferred, filed as 5.0), active compounds read high
About 79,000 compounds went through this panel and 15% of them were active in at least one assay; those are over-represented in the sample as a whole.
PROPERTY_NAME: growth inhibition (%)
Dear colleague, please return just the value in %, with no unit written.

Please give the measured growth inhibition for this compound: O=[N+]([O-])C(/C=C(\Cl)[N+](=O)[O-])=C(Nc1ccccc1)Nc1ccccc1
98

And CCOC(=O)C(CN)(c1ccccc1)c1ccccc1 ?
-12

And CCC(C)c1ccc(O)c(C(C)CC)c1 (stereo not drawn) ?
60

And Cc1cccc(Cc2ccccc2Cl)c1O ?
84

And CCOC(=O)c1c[nH]c2c([N+](=O)[O-])cc(OC)cc2c1=O ?
24

And COc1ccc2c(c1)c[n+](C)c1c3cc(OC)c(OC)cc3ccc21 ?
-8

And CCCCCCCCCCCC(=O)CN1CCOCC1 ?
99

And Nc1ccc(Cn2ccc3c4c(N)nc(N)nc4ccc32)cc1 ?
60

And CCc1nc(N)nc(N)c1-c1ccc(Cl)c(N=[N+]=[N-])c1 ?
28

And NNc1ccc2ccccc2c1 ?
30

And O=C1NC(=O)c2cc([N+](=O)[O-])ccc21 ?
-5

And O=c1c(Cl)c(Cl)cnn1-c1ccccc1 ?
19

And O=C(NN1CCOC1=O)OCCCl ?
0
